target: SHP2 (Homo sapiens, UniProt Q06124); assay: SHP2 degradation by Western blot in KYSE520 cells; settings: 0.1 µM
Sequence (Q06124 whole entry): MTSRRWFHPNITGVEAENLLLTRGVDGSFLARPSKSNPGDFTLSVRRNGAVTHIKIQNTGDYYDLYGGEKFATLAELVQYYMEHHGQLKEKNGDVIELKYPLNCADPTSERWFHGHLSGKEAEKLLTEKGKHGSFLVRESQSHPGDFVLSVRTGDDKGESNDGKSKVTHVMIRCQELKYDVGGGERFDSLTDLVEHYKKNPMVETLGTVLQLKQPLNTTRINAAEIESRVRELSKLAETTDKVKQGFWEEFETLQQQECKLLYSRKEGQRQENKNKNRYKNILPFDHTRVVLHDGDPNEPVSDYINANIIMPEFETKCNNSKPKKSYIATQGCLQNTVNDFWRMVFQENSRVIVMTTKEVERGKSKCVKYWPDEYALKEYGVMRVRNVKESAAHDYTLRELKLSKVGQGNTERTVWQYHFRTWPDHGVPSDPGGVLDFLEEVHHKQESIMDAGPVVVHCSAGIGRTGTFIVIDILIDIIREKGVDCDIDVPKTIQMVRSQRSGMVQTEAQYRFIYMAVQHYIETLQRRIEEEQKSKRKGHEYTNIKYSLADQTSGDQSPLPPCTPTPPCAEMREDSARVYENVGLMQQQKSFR
reported-endpoint: % of SHP2 protein degradation in KYSE520 cell line

// below: answered molecules
molecule	test-target	assay-value
Cc1ncsc1-c1ccc([C@@H](C)NC(=O)[C@H]2C[C@H](O)CN2C(=O)[C@H](NC(=O)CCCCCCCCN2CCN(C(=O)CCC(=O)Nc3cccc(Sc4ncc(N5CCC(C)(N)CC5)nc4N)c3Cl)CC2)C(C)(C)C)cc1 [Compound 26]	SHP2 (Homo sapiens, UniProt Q06124)	>95%
Cc1ncsc1-c1ccc([C@@H](C)NC(=O)[C@H]2C[C@H](O)CN2C(=O)[C@H](NC(=O)CCCCCCCOc2ccc(NC(=O)CCC(=O)Nc3cccc(Sc4ncc(N5CCC(C)(N)CC5)nc4N)c3Cl)cc2)C(C)(C)C)cc1 [Compound 28]	SHP2 (Homo sapiens, UniProt Q06124)	>95%

# evaluate next
Look up % of SHP2 protein degradation in KYSE520 cell line: Cc1ncsc1-c1ccc([C@@H](C)NC(=O)[C@H]2C[C@H](O)CN2C(=O)[C@H](NC(=O)COCCOCCOCCOCCNC(=O)CCC(=O)Nc2cccc(Sc3ncc(N4CCC(C)(N)CC4)nc3N)c2Cl)C(C)(C)C)cc1 [Compound 22]
53%
